Molecular target: T1, Biotinylated human DLL3 (Delta Like Canonical Notch Ligand 3) (human, UniProt Q9NYJ7 27-492, limits assumed, biotinylated (site not stated))
T1 construct: also called Delta-like protein 3; biotinylated target ligand human DLL3
T1 sequence: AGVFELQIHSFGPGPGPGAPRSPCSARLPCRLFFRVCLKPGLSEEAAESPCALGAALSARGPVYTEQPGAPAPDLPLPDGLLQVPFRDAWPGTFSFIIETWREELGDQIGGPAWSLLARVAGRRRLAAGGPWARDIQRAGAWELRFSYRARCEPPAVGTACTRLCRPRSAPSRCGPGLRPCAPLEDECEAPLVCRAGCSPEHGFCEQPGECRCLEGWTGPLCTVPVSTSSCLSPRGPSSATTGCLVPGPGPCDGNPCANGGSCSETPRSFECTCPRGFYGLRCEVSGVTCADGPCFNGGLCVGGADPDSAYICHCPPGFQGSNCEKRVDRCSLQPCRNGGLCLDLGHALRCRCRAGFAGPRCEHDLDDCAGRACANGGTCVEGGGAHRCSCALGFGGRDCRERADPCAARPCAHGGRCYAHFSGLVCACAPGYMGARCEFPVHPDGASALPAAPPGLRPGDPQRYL
Test: SPR; letter grade, key in paragraph 614; lower limit of grade B
Method: Biotinylated target ligand human DLL3 was immobilized on a streptavidin sensor chip. A reference surface was set up for nonspecific binding and refractive index changes. For analysis of the kinetics of interactions, varying concentrations of samples were injected at a flow rate of 100 μL/minute using running buffer containing 20 mM phosphate buffer with 2.7 mM KCl, 137 mM NaCl, 0.05% Surfactant P20 and 2% DMSO. […]
Bridge positions count the residues as written; N and C are the ends. Square brackets hold non-standard residues; d marks the D form. * marks the point of attachment. DOTA = O=C(O)CN1CCN(CC(=O)O)CCN(CC(=O)*)CCN(CC(=O)O)CC1
RECORDED_METRIC: Kd

The measured Kd associated with Ac-WTICNNWHDCWP[dK](DOTA)-NH2 (disulfide 4-10) [Cpd No. 23] reads > 1 nM
